B1: EMD (parent)
chain: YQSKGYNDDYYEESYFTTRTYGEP

- Variants of: B1
- Assay details: protein stability index of a GFP-peptide fusion (GPS, HEK-293T) (PSI 1-6); higher = more stable;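 note: lentivirally expressed fusions sorted by FACS into six bins by GFP to DsRed ratio, PSI derived from sequencing read proportions per bin multiplied by bin number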
- Experimental conditions: c terminus: a fixed tail appended
# protein stability index >= 3 gives True, anything below gives False

T20D: False

Is the recorded value of protein stability index equal to or greater than 3 for this variant? F16T
True

Is the recorded value of protein stability index equal to or greater than 3 for this variant? D9G
False

Is the recorded value of protein stability index equal to or greater than 3 for this variant? Y1K
True

Reference source: the supplement of paper PMC10567573
